target: LIMK2, P53671; test: holdup assay; set-up: key: below the threshold = too weak to quantify, mostly under pKd 3.1 to 4; conditions: plain residues with an end cap or a label only (N-terminal biotin on a linker: ado-ado)
Sequence (P53671 143-248): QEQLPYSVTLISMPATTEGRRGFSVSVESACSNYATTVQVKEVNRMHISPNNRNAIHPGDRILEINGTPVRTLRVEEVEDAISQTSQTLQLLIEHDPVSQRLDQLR

# BINDER, pKd
rows = [
    ("SNAGNTATKA [NOSTRIN, Q8IVI9]", "below the threshold"),
    ("SKSNFGSEPL [KIF17, Q9P2E2]", "below the threshold"),
    ("SKENVQETQI [LRRC4B, Q9NT99]", "below the threshold"),
    ("KKAPTNEFYA [SDC4, P31431]", "below the threshold"),
]
